Molecular target: Mu-type opioid receptor (Homo sapiens, UniProt P35372)
Sequence (P35372 whole entry): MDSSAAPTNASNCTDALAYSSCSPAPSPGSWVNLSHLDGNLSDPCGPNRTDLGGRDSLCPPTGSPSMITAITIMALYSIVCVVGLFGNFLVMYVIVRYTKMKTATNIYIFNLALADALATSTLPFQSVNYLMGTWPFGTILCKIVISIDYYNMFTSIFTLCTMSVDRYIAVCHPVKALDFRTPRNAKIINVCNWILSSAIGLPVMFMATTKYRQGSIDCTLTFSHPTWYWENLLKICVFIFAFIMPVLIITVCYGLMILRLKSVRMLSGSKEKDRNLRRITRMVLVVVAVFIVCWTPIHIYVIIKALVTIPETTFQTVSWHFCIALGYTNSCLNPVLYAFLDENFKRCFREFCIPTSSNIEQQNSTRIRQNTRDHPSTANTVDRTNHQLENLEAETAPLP
Test: Agonist activity at human mu opioid receptor expressed in HEK293 cells by CellKey method
Assay type: cell-based
Measured parameter: EC50

The reported value for O=C1[C@H]2O[C@@]34CC[C@@]5(OCOc6c(O)ccc7c6[C@@]3(CCN(CC3CC3)[C@@H]4C7)[C@H]25)N1Cc1ccccc1 in terms of EC50 is 1.8 nM

So, CC(C)CN1CC[C@@]23c4c5ccc(O)c4OCO[C@]46CC[C@@]2(O[C@H](C(=O)N4Cc2ccccc2)[C@H]63)[C@H]1C5 ? Its EC50 was 400 nM

EC50 in this record for O=C1[C@H]2O[C@@]34CC[C@@]5(OCOc6c(O)ccc7c6[C@@]3(CCN(CCc3ccccc3)[C@@H]4C7)[C@H]25)N1Cc1ccccc1 : 639 nM

Noted for C=CCN1CC[C@@]23c4c5ccc(O)c4OCO[C@]46CC[C@@]2(O[C@H](C(=O)N4Cc2ccccc2)[C@H]63)[C@H]1C5 : its EC50 reads 5.1 nM

For O=C1[C@H]2O[C@@]34CC[C@@]5(OCOc6c(O)ccc7c6[C@@]3(CCN(CC3CC3)[C@@H]4C7)[C@H]25)N1c1ccccc1 the compound record lists EC50 as 1.2 nM

What the record says about O=C1[C@H]2O[C@@]34CC[C@@]5(OCOc6c(O)ccc7c6[C@@]3(CCN(CC3CC3)[C@@H]4C7)[C@H]25)N1CCc1ccccc1 : EC50 is 5.2 nM

CN1CC[C@@]23c4c5ccc(O)c4OCO[C@]46CC[C@@]2(O[C@H](C(=O)N4Cc2ccccc2)[C@H]63)[C@H]1C5 yielded EC50 of 1350 nM

###

Molecular target: Delta-type opioid receptor (Homo sapiens, UniProt P41143)
Sequence (P41143 whole entry): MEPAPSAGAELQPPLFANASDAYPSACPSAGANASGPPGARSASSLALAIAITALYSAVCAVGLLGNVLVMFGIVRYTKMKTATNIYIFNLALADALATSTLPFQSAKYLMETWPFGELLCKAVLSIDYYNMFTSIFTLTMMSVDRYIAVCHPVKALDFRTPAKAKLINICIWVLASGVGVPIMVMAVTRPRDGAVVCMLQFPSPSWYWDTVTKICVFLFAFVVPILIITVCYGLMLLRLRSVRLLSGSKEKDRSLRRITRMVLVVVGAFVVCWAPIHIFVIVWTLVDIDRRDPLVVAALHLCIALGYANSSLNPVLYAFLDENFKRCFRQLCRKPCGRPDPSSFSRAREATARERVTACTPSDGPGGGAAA
Assay: Agonist activity at human delta opioid receptor expressed in CHO cells assessed as [35S]-GTP[gammaS] binding
Format: functional, cell-based
Measured parameter: pEC50
The quantity pEC50 is defined as the negative base-10 logarithm of the molar concentration.

Record O=C1[C@H]2O[C@@]34CC[C@@]5(OCOc6c(O)ccc7c6[C@@]3(CCN(CC3CC3)[C@@H]4C7)[C@H]25)N1CCc1ccccc1 . Reported pEC50: 9.39

GET /value?item= O=C1[C@H]2O[C@@]34CC[C@@]5(OCOc6c(O)ccc7c6[C@@]3(CCN(CC3CC3)[C@@H]4C7)[C@H]25)N1c1ccccc1 &field=pEC50 returns 9.01

For record CC(C)CN1CC[C@@]23c4c5ccc(O)c4OCO[C@]46CC[C@@]2(O[C@H](C(=O)N4Cc2ccccc2)[C@H]63)[C@H]1C5 the listed pEC50 is 7.81

# pEC50 of O=C1[C@H]2O[C@@]34CC[C@@]5(OCOc6c(O)ccc7c6[C@@]3(CCN(CC3CC3)[C@@H]4C7)[C@H]25)N1Cc1ccccc1 = 8.96

Notebook: C=CCN1CC[C@@]23c4c5ccc(O)c4OCO[C@]46CC[C@@]2(O[C@H](C(=O)N4Cc2ccccc2)[C@H]63)[C@H]1C5 , pEC50 read as 8.19

Input O=C1[C@H]2O[C@@]34CC[C@@]5(OCOc6c(O)ccc7c6[C@@]3(CCN(CCc3ccccc3)[C@@H]4C7)[C@H]25)N1Cc1ccccc1 . Output pEC50: 8.04

For this compound ( CN1CC[C@@]23c4c5ccc(O)c4OCO[C@]46CC[C@@]2(O[C@H](C(=O)N4Cc2ccccc2)[C@H]63)[C@H]1C5 ), measured pEC50 is 7.96

###

Below are molecules with their pKi as measured on Kappa-type opioid receptor (Cavia porcellus, UniProt P41144).
Sequence (P41144 whole entry): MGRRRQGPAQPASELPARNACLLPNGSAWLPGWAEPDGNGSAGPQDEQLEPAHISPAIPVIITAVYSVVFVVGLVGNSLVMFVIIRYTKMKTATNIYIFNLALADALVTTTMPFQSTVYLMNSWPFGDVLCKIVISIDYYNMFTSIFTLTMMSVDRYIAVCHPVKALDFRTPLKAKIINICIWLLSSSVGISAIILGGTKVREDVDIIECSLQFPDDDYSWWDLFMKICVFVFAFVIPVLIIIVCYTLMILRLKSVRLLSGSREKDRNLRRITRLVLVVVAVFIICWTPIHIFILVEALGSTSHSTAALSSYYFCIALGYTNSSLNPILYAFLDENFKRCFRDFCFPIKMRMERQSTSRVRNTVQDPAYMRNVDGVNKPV
API: returns pKi as number; meaning -log10 of concentration in mol/L.

Per the record, O=C1[C@H]2O[C@@]34CC[C@@]5(OCOc6c(O)ccc7c6[C@@]3(CCN(CC3CC3)[C@@H]4C7)[C@H]25)N1Cc1ccccc1 has pKi of 8.29

# pKi (molecule: O=C1[C@H]2O[C@@]34CC[C@@]5(OCOc6c(O)ccc7c6[C@@]3(CCN(CC3CC3)[C@@H]4C7)[C@H]25)N1c1ccccc1 ) is 8.77

Summary for this molecule, CN1CC[C@@]23c4c5ccc(O)c4OCO[C@]46CC[C@@]2(O[C@H](C(=O)N4Cc2ccccc2)[C@H]63)[C@H]1C5 : pKi is 6.70

Record C=CCN1CC[C@@]23c4c5ccc(O)c4OCO[C@]46CC[C@@]2(O[C@H](C(=O)N4Cc2ccccc2)[C@H]63)[C@H]1C5 . Reported pKi: 7.25

// pKi lookup, molecule = COc1ccc2c(c1O)[C@]13CCN(CC4CC4)[C@H](C2)[C@]12CC[C@]1(O)[C@H]3[C@H](O2)C(=O)N1Cc1ccccc1 , result: 6.61

Looking up CC(C)CN1CC[C@@]23c4c5ccc(O)c4OCO[C@]46CC[C@@]2(O[C@H](C(=O)N4Cc2ccccc2)[C@H]63)[C@H]1C5 , I see its pKi listed as 6.92

In plain terms, O=C1[C@H]2O[C@@]34CC[C@@]5(OCOc6c(O)ccc7c6[C@@]3(CCN(CCc3ccccc3)[C@@H]4C7)[C@H]25)N1Cc1ccccc1 has a documented pKi of 6.23

The reported value for O=C1[C@H]2O[C@@]34CC[C@@]5(OCOc6c(O)ccc7c6[C@@]3(CCN(CC3CC3)[C@@H]4C7)[C@H]25)N1CCc1ccccc1 in terms of pKi is 8.71

###

Target: UniProtKB P35372
Experiment: Agonist activity at human mu opioid receptor expressed in HEK293 cells by CellKey method relative to DAMDO
Type: cell-based
The label depends only on Emax: label 1 if it is at least 10%, label 0 if it is smaller.

query: Is reported Emax greater than or equal to 10% here: CC(C)CN1CC[C@@]23c4c5ccc(O)c4OCO[C@]46CC[C@@]2(O[C@H](C(=O)N4Cc2ccccc2)[C@H]63)[C@H]1C5
result: label 1

query: Is reported Emax greater than or equal to 10% here: CN1CC[C@@]23c4c5ccc(O)c4OCO[C@]46CC[C@@]2(O[C@H](C(=O)N4Cc2ccccc2)[C@H]63)[C@H]1C5
result: label 1

query: // inclusive: Emax at least 10%? input: O=C1[C@H]2O[C@@]34CC[C@@]5(OCOc6c(O)ccc7c6[C@@]3(CCN(CC3CC3)[C@@H]4C7)[C@H]25)N1Cc1ccccc1
result: label 0

query: Reported Emax reaches at least 10% for C=CCN1C[C@H](C)N([C@H](c2ccc(C(=O)N(CC)CC)cc2)c2cccc(OC)c2)C[C@H]1C ?
result: label 0

query: # check: Emax of O=C1[C@H]2O[C@@]34CC[C@@]5(OCOc6c(O)ccc7c6[C@@]3(CCN(CC3CC3)[C@@H]4C7)[C@H]25)N1c1ccccc1 is greater than or equal to 10%
result: label 0

query: Is Emax for O=C1[C@H]2O[C@@]34CC[C@@]5(OCOc6c(O)ccc7c6[C@@]3(CCN(CCc3ccccc3)[C@@H]4C7)[C@H]25)N1Cc1ccccc1 at or above 10%?
result: label 1

query: In plain terms: is recorded Emax at least 10% for C=CCN1CC[C@@]23c4c5ccc(O)c4OCO[C@]46CC[C@@]2(O[C@H](C(=O)N4Cc2ccccc2)[C@H]63)[C@H]1C5 ?
result: label 1

query: State whether the measured Emax reaches 10%, counting equality as reaching it, for O=C1[C@H]2O[C@@]34CC[C@@]5(OCOc6c(O)ccc7c6[C@@]3(CCN(CC3CC3)[C@@H]4C7)[C@H]25)N1CCc1ccccc1
result: label 0

###

Biological target: Delta-type opioid receptor (Homo sapiens, UniProt P41143)
Assay: Agonist activity at human delta opioid receptor expressed in HEK293 cells by CellKey method relative to SNC80
Format: cell-based
Consider the following compounds; for each one, report its Emax.
Respond with a number, then the unit of measure.

For reference, reported Emax for C=CCN1CC[C@@]23c4c5ccc(O)c4OCO[C@]46CC[C@@]2(O[C@H](C(=O)N4Cc2ccccc2)[C@H]63)[C@H]1C5 stands at 77.2%

Record summary for O=C1[C@H]2O[C@@]34CC[C@@]5(OCOc6c(O)ccc7c6[C@@]3(CCN(CC3CC3)[C@@H]4C7)[C@H]25)N1c1ccccc1 : reported Emax = 123%

The reported value for O=C1[C@H]2O[C@@]34CC[C@@]5(OCOc6c(O)ccc7c6[C@@]3(CCN(CC3CC3)[C@@H]4C7)[C@H]25)N1CCc1ccccc1 in terms of Emax is 90.6%

CN1CC[C@@]23c4c5ccc(O)c4OCO[C@]46CC[C@@]2(O[C@H](C(=O)N4Cc2ccccc2)[C@H]63)[C@H]1C5 yielded Emax of 138%

###

Would you mind telling me the reported Ki of each entry?
Target: Delta-type opioid receptor (Mus musculus, UniProt P32300)
Sequence (P32300 whole entry): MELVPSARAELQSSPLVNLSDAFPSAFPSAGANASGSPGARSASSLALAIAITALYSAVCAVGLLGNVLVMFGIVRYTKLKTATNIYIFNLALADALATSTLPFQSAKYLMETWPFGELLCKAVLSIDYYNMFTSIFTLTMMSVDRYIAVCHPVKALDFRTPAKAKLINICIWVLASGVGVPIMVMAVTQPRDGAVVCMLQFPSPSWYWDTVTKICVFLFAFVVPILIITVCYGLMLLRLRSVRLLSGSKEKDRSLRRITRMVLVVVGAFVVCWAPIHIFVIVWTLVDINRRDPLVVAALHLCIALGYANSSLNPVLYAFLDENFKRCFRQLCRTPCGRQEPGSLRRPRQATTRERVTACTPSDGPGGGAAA
Assay: Displacement of [3H]DPDPE from delta opioid receptor in mouse whole brain […] membrane
Could you give me the number in nM? Just the number is fine.

Lookup result for CN1CC[C@@]23c4c5ccc(O)c4OCO[C@]46CC[C@@]2(O[C@H](C(=O)N4Cc2ccccc2)[C@H]63)[C@H]1C5 ; measured Ki: 1.94

Noted for O=C1[C@H]2O[C@@]34CC[C@@]5(OCOc6c(O)ccc7c6[C@@]3(CCN(CC3CC3)[C@@H]4C7)[C@H]25)N1CCc1ccccc1 : its Ki reads 1.16

Per the records, this compound ( O=C1[C@H]2O[C@@]34CC[C@@]5(OCOc6c(O)ccc7c6[C@@]3(CCN(CCc3ccccc3)[C@@H]4C7)[C@H]25)N1Cc1ccccc1 ) has Ki equal to 2.59
